Recorded solubility kinetic for the following molecules
Assay: Kinetic solubility of the compound in phosphate buffer at pH 2 by nephelometry
Assay type: physicochemical
Conditions: read-out: Kinetic_solubility
observed_property: solubility kinetic (µg/mL)

> print(dat)
                                   compound  quantity.unit  assay.result
1  O=C(Nc1ccc(F)c(-c2nc3ncccc3o2)c1)c1cscn1          µg/mL           3.1
2   Cc1ccc(NC(=O)c2occc2C)cc1-c1nc2ncccc2o1          µg/mL           1.6
3  O=C(Nc1ccc(F)c(-c2nc3ncccc3o2)c1)c1cnco1          µg/mL           6.3
4    Cc1ccoc1C(=O)Nc1cccc(-c2nc3ncccc3o2)c1          µg/mL           6.3
5  O=C(Nc1ccc(Cl)c(-c2nc3ncccc3o2)c1)c1ccco1          µg/mL           1.6
6    Cc1ccc(NC(=O)c2ccoc2)cc1-c1nc2ncccc2o1          µg/mL          12.5
